Data provenance is the supplement of paper PMC11628255.

System: Renilla luciferase (RLuc)
Assay: normalised percent inhibition of luminescence (vs positive and negative controls); higher = stronger inhibition
Conditions: metal salt concentration 0.5 mM; screening conditions buffer
Listed here are compounds together with their documented normalised percent inhibition.
# unit: % | format: bare number

Below: 4 compounds and their reported normalised percent inhibition.
COMPOUND	MEASURED_VALUE
O=[N+]([O-])[O-].[Ag+] [silver nitrate]	106
O=[N+]([O-])[O-].O=[N+]([O-])[O-].O=[N+]([O-])[O-].[Ga+3] [gallium(III) nitrate]	-5.45
[Cl][Pt-2]([Cl])([Cl])[Cl].[K+].[K+] [potassium tetrachloroplatinate(II)]	66.7
O=[N+]([O-])[O-].O=[N+]([O-])[O-].[Pb+2] [lead(II) nitrate]	-3.99

## Task normalised percent inhibition lookup needed for CC#N.CC#N.CC#N.CC#N.F[B-](F)(F)F.[Cu+] [tetrakis(acetonitrile)copper(I) tetrafluoroborate] , thanks.
## Result 106

## Task Please answer likewise for O=[N+]([O-])[O-].O=[N+]([O-])[O-].[Cu+2] [copper(II) nitrate]
## Result 107

## Task Please answer likewise for O=[N+]([O-])[O-].O=[N+]([O-])[O-].[Cd+2] [cadmium nitrate]
## Result 39.6

## Task Please answer likewise for [Cl][Sn][Cl] [tin(II) chloride]
## Result -6.09
